System: OVCAR-3
Assay: NCI tumour cell line growth inhibition, 48 h
Activity calls are given as the source filed them. Cut-off read from the data, not from the text of the source: active = GI50 up to about 1.1 µM and inactive = higher.
Measured GI50 values are reported for all entries that follow.
MEASURE: GI50

INSERT INTO assay_data (molecule, target_desc, observed) VALUES
  ('COc1cc(C2C(Cl)C(=O)N2n2cnc3ccccc3c2=O)cc(OC)c1OC (stereo not given)', 'OVCAR-3', '> 100 µM (inactive)'),
  ('CC(OC1CC(=O)CC2C(=O)C=CC(=O)C12)c1ccccc1 (stereo not given)', 'OVCAR-3', '19.2 µM (inactive)'),
  ('O=C(/C=C\c1ccc(/C=C/C(=O)Nc2cccc(C3=NCCCN3)c2)cc1)Nc1cccc(C2=NCCCN2)c1', 'OVCAR-3', '> 100 µM (inactive)'),
  ('CC(C)[Si](OCC/C=C/C1CCC(=O)C1C(O)C1CCCCC1)(C(C)C)C(C)C (stereo not given)', 'OVCAR-3', '16.5 µM (inactive)'),
  ('COc1cccc(C2c3cc4c(cc3OC(NNC(N)=O)C2C)OCO4)c1OC (stereo not given)', 'OVCAR-3', '17.5 µM (inactive)');

These entries and their values trace back to ChEMBL document CHEMBL1201862.
